- TESTED SYSTEM: T1, ZFP SBS#1002 (synthetic)
- T1 chain: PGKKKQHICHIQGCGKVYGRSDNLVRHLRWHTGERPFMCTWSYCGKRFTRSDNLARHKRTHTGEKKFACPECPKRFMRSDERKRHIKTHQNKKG
- TEST NAME: EMSA
- STUDY CONDITIONS: tags: MBP fusion
ENDPOINT NAME: pKd
// returns pKd (minus log10 of molar concentration), number only

Query: Write down pKd measured for item GCGGAGGAG (dsDNA) DNA 1: GCGGAGGAG DNA 2: CTCCTCCGC
Reply: 10.55
